Listed below: log10 of solubility values for each entry.
- protocol notes: Solubility in japanese pharmacopoeia first fluid at pH 6.8
- Type: physicochemical
endpoint label: log10 of solubility (log10 of the value in µg/mL)

- CN1CCc2nc(C(=O)N[C@@H]3C[C@@H](C(=O)N(C)C)CC[C@@H]3NC(=O)c3[nH]c4ccc(Cl)cc4c3Br)sc2C1: 1.46
- CN1CCc2nc(C(=O)N[C@@H]3C[C@@H](C(=O)N(C)C)CC[C@@H]3NC(=O)c3cc4cc(Cl)ncc4[nH]3)sc2C1: 2.88
- CN1CCc2nc(C(=O)NC3C[C@@H](C(=O)N(C)C)CCC3NC(=O)c3cc4cc(Br)ccc4[nH]3)sc2C1 (single isomer, unassigned): 1.04
- CN1CCc2nc(C(=O)N[C@@H]3C[C@@H](C(=O)N(C)C)CC[C@@H]3NC(=O)c3cc4cc(F)ccc4[nH]3)sc2C1: 2.46
- CN1CCc2nc(C(=O)N[C@@H]3C[C@@H](C(=O)N(C)C)CC[C@@H]3NC(=O)c3cn4ccc(Cl)cc4n3)sc2C1: 2.85
- CN1CCc2nc(C(=O)N[C@@H]3C[C@@H](C(=O)N(C)C)CC[C@@H]3NC(=O)c3cc4cc(Cl)cc(F)c4[nH]3)sc2C1: 1.28

Sourced from ChEMBL document CHEMBL1153091
